Quick reference for viscosity among some compounds
Test: xn = mol fraction of the nth substance listed
Conditions: 293.15 K; 101 kPa; x2 = 0.2

compound: CCCCCCCC + CCCCCCC
viscosity (mPa·s): 0.511

compound: CN(C)C=O + CCO
viscosity (mPa·s): 0.876

compound: CN(C)C=O + CO
viscosity (mPa·s): 0.809

compound: c1ccccc1 + CO
viscosity (mPa·s): 0.613

###

Conditions: 313.15 K; 101 kPa
Outcome: t for viscosity of at least 3 mPa·s; f for anything lower.

molecule: CCCCCCCCCCCCCC[P+](CCCCCC)(CCCCCC)CCCCCC.N#C[N-]C#N
class name: t

molecule: C1CCC2CCCCC2C1 (stereo unspecified)
class name: f

molecule: COCC(C)O (stereo unspecified)
class name: f

molecule: CCCCCCCCCCCCCCCCCCC
class name: t

molecule: CCOCCOCCO
class name: f

molecule: O=[N+]([O-])c1ccccc1
class name: f
